- protocol.text: CHI Log D procedure
- Assay type: physicochemical
- assay.setup: pH 7.4, CHI Log D
measured.attribute: chromatographic logD
Numbers only.

Please give chromatographic logD for each item listed below.
1. CCCC[C@@H]1NC(=O)[C@H](C)NC(=O)[C@H](C)NC(=O)[C@H](CCC(=O)O)NC(=O)[C@H](CC(=O)O)NC(=O)C2(CCCC=CCCCCCC[C@@](C)(C(=O)N[C@@H](Cc3ccccc3)C(=O)N[C@@H](Cc3csc4ccccc34)C(=O)N[C@@H](CCC(N)=O)C(N)=O)NC(=O)[C@H](CCC(N)=O)NC1=O)CCCC=CC[C@]1(CCCN1C(C)=O)C(=O)N[C@@H](CC(=O)O)C(=O)N[C@@H]([C@@H](C)CC)C(=O)N2 (stereo partly drawn)
2. CC(=O)N1CCC[C@]12CC=CCCCC1(CCCC=CCCCCCC[C@@](C)(C(=O)N[C@@H](Cc3ccccc3)C(=O)N[C@@H](Cc3csc4ccccc34)C(=O)N[C@@H](CCC(N)=O)C(N)=O)NC(=O)[C@H](CC(N)=O)NC(=O)[C@H](Cc3cscn3)NC(=O)[C@H](C)NC(=O)[C@H](C)NC(=O)[C@H](CCC(=O)O)NC(=O)[C@H](CC(=O)O)NC1=O)NC(=O)[C@H](C)NC(=O)[C@H](CC(=O)O)NC2=O (stereo partly drawn)
3. CC(=O)N1CCC[C@]12CC=CCCCC1(CCCC=CCCCCCC[C@@](C)(C(=O)N[C@@H](Cc3ccccc3)C(=O)N[C@@H](Cc3c[nH]c4ccccc34)C(=O)N[C@@H](CCC(N)=O)C(N)=O)NC(=O)[C@H](C(C)C)NC(=O)[C@H](Cc3ccccc3)NC(=O)[C@H](C)NC(=O)[C@H](C)NC(=O)[C@H](CCC(=O)O)NC(=O)[C@H](CC(=O)O)NC1=O)NC(=O)[C@H](C)NC(=O)[C@H](Cc1cccc(C)c1)NC2=O (stereo partly drawn)

Ans.
[2.35, 1.89, 3.09]

###

- protocol.text: CHI Log D procedure
- Type: physicochemical
- assay.setup: pH 7.4
Field: CHI Log D. Provide a value for each of the compounds that follow.
Give bare numbers.

Before answering, review these 4 worked examples.
CC(=O)N1CCC[C@]12CC=CCCCC1(CCCC=CCCCCCC[C@@](C)(C(=O)N[C@@H](Cc3ccccc3)C(=O)N[C@@H](Cc3c[nH]c4ccccc34)C(=O)N[C@@H](C)C(N)=O)NC(=O)[C@H](C)NC(=O)[C@H](Cc3ccccc3)NC(=O)[C@H](C)NC(=O)[C@H](C)NC(=O)[C@H](CCC(=O)O)NC(=O)[C@H](CC(=O)O)NC1=O)NC(=O)[C@H](C)NC(=O)[C@H](CC(=O)O)NC2=O (some centres unmarked) [I-186]    2.041
CC(=O)N[C@@H](Cc1ccccc1)C(=O)N[C@@H](CC(=O)O)C(=O)N[C@@H](C)C(=O)N[C@]1(C)CCN(C)C(=O)OCC=CCCCCC[C@@](C)(C(=O)N[C@@H](Cc2ccccc2)C(=O)N[C@@H](Cc2c[nH]c3ccccc23)C(=O)N[C@@H](CCC(N)=O)C(N)=O)NC(=O)[C@H](C(C)C)NC(=O)[C@H](Cc2ccccc2)NC(=O)[C@H](C)NC(=O)[C@H](C)NC(=O)[C@H](CC(=O)O)NC(=O)[C@H](CC(=O)O)NC1=O (single isomer, unassigned)    1.246
CC(=O)N[C@@H](Cc1ccccc1)C(=O)N[C@@H](CC(=O)O)C(=O)N[C@@H](C)C(=O)N[C@]1(C)CCCCCCC=CCOC(=O)N2CC[C@@](C(=O)N[C@@H](Cc3ccc(C(=O)O)cc3)C(=O)N[C@@H](Cc3c[nH]c4ccccc34)C(=O)N[C@@H](CCC(N)=O)C(N)=O)(C2)NC(=O)[C@H](C(C)C)NC(=O)[C@H](Cc2ccccc2)NC(=O)[C@H](C)NC(=O)[C@H](C)NC(=O)[C@H](CC(=O)O)NC(=O)[C@H](CC(=O)O)NC1=O [I-111]    0.779
CC(=O)N1CCC[C@]12CC=CCCCC1(CCCC=CCCCCCC[C@@](C)(C(=O)N[C@@H](Cc3ccccc3)C(=O)N[C@@H](Cc3csc4ccccc34)C(=O)N[C@H](C(N)=O)[C@@H](C)O)NC(=O)[C@H](CC(N)=O)NC(=O)[C@H](Cc3ccccc3)NC(=O)[C@H](C)NC(=O)[C@H](C)NC(=O)[C@H](CCC(=O)O)NC(=O)[C@H](CC(=O)O)NC1=O)NC(=O)[C@H](CC(C)C)NC(=O)[C@H](CC(=O)O)NC2=O (some centres unmarked) [I-748]    2.459

Query compound follows.
Qu. # input compound: CC(=O)N1CCC[C@]12CC=CCCCC1(CCCC=CCCCCCC[C@@](C)(C(=O)N[C@@H](Cc3ccccc3F)C(=O)N[C@@H](Cc3c[nH]c4ccccc34)C(=O)N[C@@H](CCC(N)=O)C(N)=O)NC(=O)[C@H](C(C)C)NC(=O)[C@H](Cc3ccccc3)NC(=O)[C@H](C)NC(=O)[C@H](C)NC(=O)[C@H](CC(=O)O)NC(=O)[C@H](CC(=O)O)NC1=O)NC(=O)[C@H](C)NC(=O)[C@H](CC(=O)O)NC2=O (some centres unmarked) [I-318] ; wanted: its CHI Log D
Ans. 2.001

###

- protocol.text: CHI Log D procedure
- Type: physicochemical
- assay.setup: pH 7.4, CHI Log D
Threshold check on chromatographic logD: strictly below 2 is 1; on or above 2 is 0.

# count of solved cases: 4
CC(=O)N1CCC[C@]12CC=CCCCC1(CCCC=CCCCOC(=O)N3CC[C@@](C(=O)N[C@@H](Cc4ccsc4)C(=O)N[C@@H](Cc4cn(C)c5ccccc45)C(=O)N[C@@H](Cc4c[nH]cn4)C(N)=O)(C3)NC(=O)[C@H](CC(N)=O)NC(=O)[C@H](Cc3ccccc3)NC(=O)[C@H](C)NC(=O)[C@H](C)NC(=O)[C@H](CC(=O)O)NC(=O)[C@H](CC(=O)O)NC1=O)NC(=O)[C@H](CC(C)(C)C)NC(=O)[C@H](CC(=O)O)NC2=O (some centres unmarked) [I-799]    0
CC(=O)N1CCC[C@]12CC=CCCCC1(CCCC=CCCCCCC[C@@](C)(C(=O)N[C@@H](Cc3ccccc3)C(=O)N[C@@H](Cc3csc4ccccc34)C(=O)N[C@@H](C)C(N)=O)NC(=O)[C@H](CCC(N)=O)NC(=O)[C@H](Cc3ccccc3)NC(=O)[C@H](C)NC(=O)[C@H](C)NC(=O)[C@H](Cc3ccc4ccccc4c3)NC(=O)[C@H](CC(=O)O)NC1=O)NC(=O)[C@H](C)NC(=O)[C@H](CC(=O)O)NC2=O (some centres unmarked) [I-296]    0
CC(=O)N[C@@H](Cc1ccccc1)C(=O)N[C@@H](CC(=O)O)C(=O)N[C@@H](C)C(=O)N[C@]1(C)CCCCCCC=CCOC(=O)N2CC[C@@](C(=O)N[C@@H](Cc3ccccc3)C(=O)N[C@@H](Cc3c[nH]c4ccccc34)C(=O)N[C@@H](CCC(N)=O)C(N)=O)(C2)NC(=O)[C@H](C(C)C)NC(=O)[C@H](Cc2cccc(F)c2)NC(=O)[C@H](C)NC(=O)[C@H](C)NC(=O)[C@H](CC(=O)O)NC(=O)[C@H](CC(=O)O)NC1=O [I-77]    1
CC(=O)N1CCC[C@]12CC=CCCCC1(CCCC=CCCCOC(=O)N3CC[C@@](C(=O)N[C@@H](Cc4ccsc4)C(=O)N[C@@H](Cc4csc5ccccc45)C(=O)N[C@@H](Cc4c[nH]cn4)C(N)=O)(C3)NC(=O)[C@H](Cc3ccccc3)NC(=O)[C@H](Cc3ccccc3)NC(=O)[C@H](C)NC(=O)[C@H](C)NC(=O)[C@H](CC(=O)O)NC(=O)[C@H](CC(=O)O)NC1=O)NC(=O)[C@H](CC(C)(C)C)NC(=O)[C@H](CC(=O)O)NC2=O (some centres unmarked) [I-808]    0

For the next question, use this compound.
Qu. A record lists CC(=O)N1CCC[C@]12CC=CCCCC1(CCCC=CCCCOC(=O)N3CC[C@@](C(=O)N[C@@H](Cc4ccccc4)C(=O)N[C@@H](Cc4csc5ccccc45)C(=O)N[C@@H](CCC(N)=O)C(N)=O)(C3)NC(=O)[C@H](Cc3ccccc3)NC(=O)[C@H](Cc3ccccc3)NC(=O)[C@H](C)NC(=O)[C@H](C)NC(=O)[C@H](CN(CC(=O)O)CC(F)(F)F)NC(=O)[C@H](CC(=O)O)NC1=O)NC(=O)[C@H](CC(C)(C)C)NC(=O)[C@H](CC(=O)O)NC2=O (some centres unmarked) [I-988] . Is its chromatographic logD below 2?
Ans. 0

###

Field: Solubility. Provide a value for each of the compounds that follow.
- protocol.text: Solubility in PBS
- Assay type: physicochemical
- assay.setup: Solubility (uM)
- Protocol: After ultracentrifugation of the PBS solution, the supernatant was analyzed by HPLC and compared to an HPLC injection 50 μM peptide DMSO solution. Solubility was determined by: [(Area of PBS peak)/(Area of DMSO peak)]*50 uM.
Numbers only, in µM.

CC(=O)N1CCC[C@]12CC=CCCCC1(CCCC=CCCCOC(=O)N3CC[C@@](C(=O)N[C@@H](Cc4ccccc4Cl)C(=O)N[C@@H](Cc4csc5ccccc45)C(=O)N[C@@H](CCC(N)=O)C(N)=O)(C3)NC(=O)[C@H](CC(N)=O)NC(=O)[C@H](Cc3ccccc3)NC(=O)[C@H](C)NC(=O)[C@H](Cc3ccccc3)NC(=O)[C@H](CN(CC(=O)O)CC(F)(F)F)NC(=O)[C@H](CC(=O)O)NC1=O)NC(=O)[C@H](CC(C)(C)C)NC(=O)[C@H](CC(=O)O)NC2=O (stereo partly drawn) [I-1008]    34

Please give Solubility for each item listed below.
1. CC[C@H](C)[C@@H]1NC(=O)[C@H](CC(=O)O)NC(=O)[C@]2(CC=CCCCC3(CCCC=CCCCCCC[C@@](C)(C(=O)N[C@@H](Cc4ccccc4)C(=O)N[C@@H](Cc4csc5ccccc45)C(=O)N[C@@H](CCC(N)=O)C(N)=O)NC(=O)[C@H](CC(N)=O)NC(=O)[C@H](Cc4ccccc4)NC(=O)[C@H](C)NC(=O)[C@H](C)NC(=O)[C@H](CCC(=O)O)NC(=O)[C@H](CC(=O)O)NC3=O)NC1=O)CCCN2C(C)=O (stereo partly drawn) [I-557]
2. CC(=O)N1CCC[C@]12CC=CCCCC1(CCCC=CCCCOC(=O)N3CC[C@@](C(=O)N[C@@H](Cc4ccccc4F)C(=O)N[C@@H](Cc4csc5ccccc45)C(=O)N[C@@H](CCC(N)=O)C(N)=O)(C3)NC(=O)[C@H](CC(C)C)NC(=O)[C@H](Cc3ccccc3)NC(=O)[C@H](C)NC(=O)[C@H](C)NC(=O)[C@H](CC(=O)O)NC(=O)[C@H](CC(=O)O)NC1=O)NC(=O)[C@H](CC(C)(C)C)NC(=O)[C@H](CC(=O)O)NC2=O (stereo partly drawn) [I-1321]

Ans.
1: 47; 2: 48
